- PROTOCOL: Bidirectional permeability in Caco-2 cells
- Assay type: in vitro ADME
- CONDITION DETAILS: human; Caco-2, apical to basolateral, 2 μM, 120 minutes; read-out: mean apparent permeability coefficient (Papp), A to B
VALUE TYPE: Papp A→B at 120 min, 2 μM

## Input Name the reported Papp A→B at 120 min, 2 μM value associated with the molecule COc1ccc2c3c1O[C@@H]1[C@@]4(OCCOc5ccc6c7c5OC5C8(OC)CC[C@@]9(CC8[C@](C)(O)C(C)(C)C)[C@@H](C6)N(CC6CC6)CCC759)CC[C@@]5(C[C@@H]4[C@](C)(O)C(C)(C)C)[C@@H](C2)N(CC2CC2)CC[C@]315 (stereo in doubt)
## Output < 4.8 nm/s
